// values below are reported half-life at 1 µM
Test: Hepatocyte intrinsic clearance and metabolite profile
Type: in vitro ADME, human
Details: human, cryopreserved pooled hepatocytes, 1 µM
Quick note: give the figure in min, leave out the unit.

Return reported half-life at 1 µM. Input compound: CCOc1ccc2ccc(=O)oc2c1 [7-ethoxycoumarin, reference compound]
4.8

Please give measured half-life at 1 µM of the following entry: CSc1ccc(OCc2ncc([N+](=O)[O-])n2C)cc1 [Fexinidazole]
13

----------
Assay: Rat 28-day toxicokinetics
Assay type: in vivo
Details: Sprague-Dawley (Crl:CD (SD)IGS BR), plasma, po, 50 mg/kg/day, Day 28, female, read-out: AUC within 24 hours post dosing
assay.metric: AUC (µg·h/mL)
Numeric only. Scale: µg·h/mL

Please give the documented AUC of "Cn1c([N+](=O)[O-])cnc1COc1ccc(S(C)(=O)=O)cc1"
175

----------
Here, each record is paired with measured concentration at 5 min data.
Assay: Mouse brain concentrations
Assay type: in vivo
Conditions: female, NMRI, mouse, brain, intravenous, 1 mg/kg, fexinidazole 1 mg/kg iv, 5 min; read-out: Brain concentration
Could you write the number and then its unit?

{"compound": "Cn1c([N+](=O)[O-])cnc1COc1ccc([S+](C)[O-])cc1 (centres unmarked) [Fexinidazole sulfoxide]", "value": "120 ng/g"}

Write down concentration at 5 min measured for item "CSc1ccc(OCc2ncc([N+](=O)[O-])n2C)cc1"
277 ng/g

----------
Experiment: Rat 28-day toxicokinetics
Assay type: in vivo
Details: male, Sprague Dawley (Crl:CD (SD)IGS BR), plasma, po, 800 mg/kg/day, Day 28, male, read-out: AUC0-t(last)
assay.metric: AUC(0-t) (µg·h/mL)
Provide only the numeric value, understood in µg·h/mL.

{"compound": "CSc1ccc(OCc2ncc([N+](=O)[O-])n2C)cc1 [Fexinidazole]", "unit.info": "µg·h/mL", "AUC(0-t)": 11.9}

Consider the compound Cn1c([N+](=O)[O-])cnc1COc1ccc([S+](C)[O-])cc1 (centres unmarked) [Fexinidazole sulfoxide] and give its recorded AUC(0-t).
268

----------
Test: Rat single-dose IV and oral pharmacokinetics
Type: in vivo
Conditions: male, Sprague Dawley, plasma, fexinidazole 5 mg/kg IV, read-out: AUC0-t(last)
We begin with a simple list: items and their reported AUC(0-t).
Give the value, in units of ng·h/mL, as a plain number.

Worked set:
{"molecule": "Cn1c([N+](=O)[O-])cnc1COc1ccc([S+](C)[O-])cc1 (stereo not drawn) [Fexinidazole sulfoxide]", "AUC(0-t), ng·h/mL": 9440}
{"molecule": "CSc1ccc(OCc2ncc([N+](=O)[O-])n2C)cc1 [Fexinidazole]", "AUC(0-t), ng·h/mL": 1160}

// below: AUC(0-t) requested for another molecule
Name the recorded AUC(0-t) of the molecule listed here: Cn1c([N+](=O)[O-])cnc1COc1ccc(S(C)(=O)=O)cc1 [Fexinidazole sulfone]
9590

----------
Assay: Mouse brain concentrations
Format: in vivo
Details: female, NMRI, mouse, brain; iv 1 mg/kg, 15 min; read-out: Mean plasma:brain ratio (plasma = 1.00)
assay.metric: Kp at 15 min
Please respond with just the number, no unit label.

For the molecule "CSc1ccc(OCc2ncc([N+](=O)[O-])n2C)cc1" , report Kp at 15 min.
0.76

----------
The molecules listed here are annotated with their half-life.
Experiment: Mouse single-dose plasma pharmacokinetics
Assay type: in vivo
Conditions: female, NMRI, mouse; plasma, fexinidazole 25 mg/kg po
Description: Blood samples were taken via into heparinised collection tubes and, following centrifugation, plasma was removed and stored frozen until required for assay. […] All doses are expressed as free base […] All of the plasma samples together with the brains from the 15 minute time point were analysed for concentrations of the test material and its sulfone and sulfoxide metabolites. […] The AUC was determined using the linear/log trapezoidal method. […] The AUClast was also determined. […]
Numeric answer only, unit min assumed.

{"molecule": "CSc1ccc(OCc2ncc([N+](=O)[O-])n2C)cc1", "assay.metric": "half-life", "value": 48}
{"molecule": "Cn1c([N+](=O)[O-])cnc1COc1ccc(S(C)(=O)=O)cc1", "assay.metric": "half-life", "value": 102}

Field: next molecule
For the molecule Cn1c([N+](=O)[O-])cnc1COc1ccc([S+](C)[O-])cc1 (stereo not drawn) [Fexinidazole sulfoxide] , give its reported half-life.
60

----------
Assay: Dog 28-day toxicokinetics
Format: in vivo
Details: both sexes, beagle, plasma, po, 800 mg/kg/day, 800 mg/kg/day po, day 14, read-out: AUC0-t(last)
Protocol: In the dog repeated-dose toxicokinetic study, fexinidazole was given orally by gavage once a day for 28 days to five (control and high dose) or three (low and mid dose) beagle dogs/sex/dose at the doses of 0 (control group), 50, 200, or 800 mg/kg/day. The control group received the vehicle alone (same as above). Systemic exposure to fexinidazole and of its sulfoxide and sulfone metabolites was evaluated on days 1, 14 and 28 in the same animals used for the toxicological study. […]
# AUC(0-t) values compiled below
Report as a plain number; the unit µg·h/mL is understood.

Known results for compounds:
{"compound": "Cn1c([N+](=O)[O-])cnc1COc1ccc(S(C)(=O)=O)cc1 [Fexinidazole sulfone]", "AUC(0-t), µg·h/mL": 653}
{"compound": "Cn1c([N+](=O)[O-])cnc1COc1ccc([S+](C)[O-])cc1 (stereo not drawn) [Fexinidazole sulfoxide]", "AUC(0-t), µg·h/mL": 129}

Turning now to a further compound:
Note down AUC(0-t) recorded for CSc1ccc(OCc2ncc([N+](=O)[O-])n2C)cc1 [Fexinidazole]
1.05

----------
AUC(0-t) values by entry
Test: Rat 28-day toxicokinetics
Type: in vivo
Conditions: Sprague-Dawley (Crl:CD (SD)IGS BR), plasma, po, 50 mg/kg/day, 50 mg/kg/day po, day 14, read-out: AUC0-t(last)
State just the number; it will be interpreted in ng·h/mL.

{"compound": "Cn1c([N+](=O)[O-])cnc1COc1ccc(S(C)(=O)=O)cc1", "unit.info": "ng·h/mL", "AUC(0-t)": 89600}
{"compound": "Cn1c([N+](=O)[O-])cnc1COc1ccc([S+](C)[O-])cc1 (stereo not drawn) [Fexinidazole sulfoxide]", "unit.info": "ng·h/mL", "AUC(0-t)": 29800}

In the following, a different compound is considered.
Give the reported value of AUC(0-t) for this record: "CSc1ccc(OCc2ncc([N+](=O)[O-])n2C)cc1"
830

----------
Experiment: Rat single-dose IV and oral pharmacokinetics
Type: in vivo
Conditions: male, Sprague Dawley, plasma, fexinidazole 10 mg/kg oral, read-out: t1/2,z (converted)
assay.metric: half-life (h)
Please give a number only; it is taken to be in h.

Identify half-life associated with the compound "CSc1ccc(OCc2ncc([N+](=O)[O-])n2C)cc1"
1.72

----------
Assay: Rat 28-day toxicokinetics
Assay type: in vivo
Details: both sexes, Sprague-Dawley (Crl:CD (SD)IGS BR), plasma, po, 800 mg/kg/day, 800 mg/kg/day po, day 14
assay.metric: Cmax (ng/mL)
State the answer as a number, implicitly in ng/mL.

Recorded results for 2 molecules are shown here.
{"molecule": "CSc1ccc(OCc2ncc([N+](=O)[O-])n2C)cc1 [Fexinidazole]", "unit.info": "ng/mL", "Cmax": 1020}
{"molecule": "Cn1c([N+](=O)[O-])cnc1COc1ccc(S(C)(=O)=O)cc1 [Fexinidazole sulfone]", "unit.info": "ng/mL", "Cmax": 40500}

Next up:
Determine from records and report Cmax for Cn1c([N+](=O)[O-])cnc1COc1ccc([S+](C)[O-])cc1 (stereo not drawn) [Fexinidazole sulfoxide]
25000

----------
Assay: Rat 28-day toxicokinetics
Assay type: in vivo
Conditions: female, Sprague Dawley (Crl:CD (SD)IGS BR), plasma, po, 800 mg/kg/day, Day 28, female (n=2)
assay.metric: Cmax (ng/mL)
// units = ng/mL; emit number, no label

{"molecule": "CSc1ccc(OCc2ncc([N+](=O)[O-])n2C)cc1 [Fexinidazole]", "unit.info": "ng/mL", "Cmax": 749}

For the molecule Cn1c([N+](=O)[O-])cnc1COc1ccc(S(C)(=O)=O)cc1 [Fexinidazole sulfone] , give its reported Cmax.
41900

Input Cn1c([N+](=O)[O-])cnc1COc1ccc([S+](C)[O-])cc1 (stereo not drawn) [Fexinidazole sulfoxide] , output reported Cmax.
25800

----------
Test: Rat 28-day toxicokinetics
Assay type: in vivo
Details: both sexes, Sprague-Dawley (Crl:CD (SD)IGS BR), plasma, po, 800 mg/kg/day, 800 mg/kg/day po, day 14, read-out: AUC0-t(last)
Entries annotated with measured AUC(0-t)
Numeric answer only, unit µg·h/mL assumed.

{"compound": "Cn1c([N+](=O)[O-])cnc1COc1ccc(S(C)(=O)=O)cc1", "AUC(0-t) / µg·h/mL": 543}
{"compound": "CSc1ccc(OCc2ncc([N+](=O)[O-])n2C)cc1", "AUC(0-t) / µg·h/mL": 9.29}

Attention now shifts to the item below.
Item Cn1c([N+](=O)[O-])cnc1COc1ccc([S+](C)[O-])cc1 (stereo not drawn) [Fexinidazole sulfoxide] : provide AUC(0-t)
277
